B1: TMEM106C (parent)
chain: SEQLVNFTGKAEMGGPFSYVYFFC

variants of: B1; test: protein stability index of a GFP-peptide fusion (GPS, HEK-293T) (PSI 1-6); higher = more stable; conditions: c terminus: a fixed tail appended;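 note: lentivirally expressed fusions sorted by FACS into six bins by GFP to DsRed ratio, PSI derived from sequencing read proportions per bin multiplied by bin number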
Cut-off 3 on protein stability index, inclusive. At or above means 1 (yes); below means 0 (no).

Quick check, protein stability index >= 3? F22E
0 (no)

Test whether the variant G15H records protein stability index of 3 or higher.
1 (yes)

Is the recorded value of protein stability index equal to or greater than 3 for this variant? E2C
0 (no)

protein stability index >= 3 for V20R ?
0 (no)

Does protein stability index meet or surpass 3 for V20G ?
0 (no)

Is protein stability index for V20P at or above 3?
0 (no)

Does the reported protein stability index for F17C fall at or above the 3 mark?
0 (no)

Can M13T be said to have protein stability index at or above 3?
0 (no)

# bool: protein stability index of K10G >= 3
1 (yes)

Check if protein stability index >= 3 (inclusive). Item: V5Y
1 (yes)

protein stability index >= 3 for V20S ?
0 (no)

Does the reported protein stability index for F17D fall at or above the 3 mark?
0 (no)

Could you tell me if the measured protein stability index of E2S reaches 3 or more?
0 (no)

Textbook exercise: given the entry Y19N , state whether its protein stability index is greater than or equal to 3.
0 (no)

Check this variant for protein stability index at or above 3: F23P
0 (no)

Does the reported protein stability index for M13Q fall at or above the 3 mark?
0 (no)

Does the reported protein stability index for F23A fall at or above the 3 mark?
0 (no)

I'd appreciate it if you could say whether G9N has protein stability index at least equal to 3.
1 (yes)

Could you please find out whether S1K has protein stability index that meets 3 or exceeds it?
0 (no)

Quick check: does S1I have protein stability index greater than or equal to 3?
1 (yes)

Is reported protein stability index greater than or equal to 3 here: P16C
1 (yes)

hey, is protein stability index for this one >= 3? S1R
1 (yes)

Check this variant for protein stability index at or above 3: S18R
1 (yes)

Determine whether measured protein stability index meets or exceeds 3 for F22K
0 (no)
